Reported AUC values are given for each entry in this list.
# Measurement notes: in vivo
# Assay conditions: dog, plasma, po, 0.5 mg/kg
Remember to put the unit after the number in your answer.

The examples below pair each entry with its known result.
INSERT INTO results (smiles_code, measure_name, value_measured) VALUES
  ('CCS(=O)(=O)CCCn1c(Cn2c(=O)n(CC(F)(F)F)c3ccncc32)nc2ccccc21', 'AUC', '438 ng·h/mL'),
  ('N#CCCCn1c(Cn2c(=O)n(C3CC3)c3ccncc32)nc2ccccc21', 'AUC', '755 ng·h/mL');

# evaluate next
For the compound shown here, CS(=O)(=O)CCCn1c(Cn2c(=O)n(CC(F)(F)F)c3ccncc32)nc2ccccc21 , give the reported AUC.
307 ng·h/mL

###

Reported AUC values are given for each entry in this list.
# Measurement notes: in vivo
# Assay conditions: rat, plasma, po, 5 mg/kg
Report only the number, with the unit ng·h/mL understood.

INSERT INTO measurements (smiles_code, measure_name, value_measured) VALUES
  ('CCS(=O)(=O)CCCn1c(Cn2c(=O)n(CC(F)(F)F)c3ccncc32)nc2ccccc21', 'AUC', 133),
  ('CS(=O)(=O)CCCn1c(Cn2c(=O)n(CC(F)(F)F)c3ccncc32)nc2ccccc21', 'AUC', 40);

# evaluate next
For the molecule shown here, N#CCCCn1c(Cn2c(=O)n(C3CC3)c3ccncc32)nc2ccccc21 , give the reported AUC.
973

###

# Measurement notes: in vitro
# Assay conditions: human, Caco-2, permeability
Reported Papp values are given for each entry in this list.
Report only the number, with the unit ×10⁻⁶ cm/s understood.

The examples below pair each entry with its known result.
INSERT INTO results (smiles_code, measure_name, result_units, value_measured) VALUES
  ('CC(C)n1c(=O)n(Cc2nc3ccccc3n2CCCC#N)c2cnccc21', 'Papp', '×10⁻⁶ cm/s', 16.9),
  ('CS(=O)(=O)CCCn1c(Cn2c(=O)n(CC(F)(F)F)c3ccncc32)nc2ccccc21', 'Papp', '×10⁻⁶ cm/s', 3.6),
  ('O=c1n(Cc2nc3ccccc3n2CCCCF)c2cnccc2n1CC(F)(F)F', 'Papp', '×10⁻⁶ cm/s', 24.5),
  ('N#CCCCn1c(Cn2c(=O)n(CC(F)(F)F)c3ccncc32)nc2ccccc21', 'Papp', '×10⁻⁶ cm/s', 19.7);

# evaluate next
For the compound shown here, CC(C)(C)n1c(=O)n(Cc2nc3ccccc3n2CCCC#N)c2cnccc21 , give the reported Papp.
21.4

###

# Measurement notes: in vivo
# Assay conditions: cynomolgus monkey, plasma, po, 0.5 mg/kg
Measure name: AUC (ng·h/mL)
Report only the number, with the unit ng·h/mL understood.

The examples below pair each entry with its known result.
INSERT INTO results (smiles_code, measure_name, result_units, value_measured) VALUES
  ('CCS(=O)(=O)CCCn1c(Cn2c(=O)n(CC(F)(F)F)c3ccncc32)nc2ccccc21', 'AUC', 'ng·h/mL', 118),
  ('N#CCCCn1c(Cn2c(=O)n(C3CC3)c3ccncc32)nc2ccccc21', 'AUC', 'ng·h/mL', 270);

# evaluate next
For the compound shown here, CS(=O)(=O)CCCn1c(Cn2c(=O)n(CC(F)(F)F)c3ccncc32)nc2ccccc21 , give the reported AUC.
185
